Consider the following compounds; for each one, report its pIC50.
- Test system: PDGFR
- Protocol details: Rat A10 cell proliferation assay
- Format: cell-based
- Recorded conditions: Table 2; Rat A10 cells, recombinant rat PDGF-BB, CellTiter-Glo after 68 hours
On this scale, pIC50 is minus log10 of a concentration expressed in M (mol/L).

State the recorded pIC50 for this entry: O=C(NCC(O)C(F)(F)F)c1ccc(F)c(NC(=O)c2cnc3ccccn23)c1 (centres unmarked) [F63]
5.97

State the recorded pIC50 for this entry: C[C@@H]1CC[C@H](O)[C@H](C)N1CCNC(=O)c1ccc(F)c(NC(=O)c2cnc3cc(-c4ccnn4C)ccn23)c1 [F109]
6.53

State the recorded pIC50 for this entry: O=C(NCC1(O)CCC1)c1ccc(F)c(NC(=O)c2cnc3ccccn23)c1 [F91]
5.76

State the recorded pIC50 for this entry: O=C(N[C@@H](CO)c1ccccc1)c1ccc(F)c(NC(=O)c2cnc3ccccn23)c1 [F86]
5.82

State the recorded pIC50 for this entry: O=C(NCC1(O)CCCCC1)c1cccc(NC(=O)c2cnc3ccccn23)c1 [F64]
5.96

State the recorded pIC50 for this entry: CN(C)CCCOc1ccc(-c2ccn3c(C(=O)Nc4cc(C(=O)N[C@@H]5Cc6ccccc6[C@@H]5O)ccc4F)cnc3c2)cn1 [F39]
6.60

State the recorded pIC50 for this entry: CSCC[C@@H](CO)NC(=O)c1ccc(F)c(NC(=O)c2cnc3ccccn23)c1 [F96]
6.25

State the recorded pIC50 for this entry: O=C(N[C@@H]1c2cc(Cl)ccc2C[C@@H]1O)c1ccc(F)c(NC(=O)c2cnc3ccc(F)cn23)c1 (stereo in doubt) [F42]
6.56

* * *

Consider the following compounds; for each one, report its pIC50.
- System: PDGFR
- Protocol details: Rat A10 cell proliferation assay
- Assay type: cell-based
- Recorded conditions: Table 2; Rat A10 cells, recombinant rat PDGF-BB, CellTiter-Glo after 68 hours
On this scale, pIC50 is minus log10 of a concentration expressed in M (mol/L).

State the recorded pIC50 for this entry: O=C(N[C@H]1Cc2ccccc2[C@H]1O)c1ccc(F)c(NC(=O)c2cnc3ccccn23)c1 (stereo in doubt) [F46]
6.46

State the recorded pIC50 for this entry: Cc1ccc2ncc(C(=O)Nc3cc(C(=O)N[C@@H]4c5ccccc5C[C@@H]4O)c(C)cc3F)n2c1 [F88]
5.66

State the recorded pIC50 for this entry: O=C(N[C@@H]1Cc2ccccc2[C@H]1O)c1ccc(F)c(NC(=O)c2cnc3ccccn23)c1 [F37]
6.62

* * *

- Tested on: PDGFR
- Protocol details: Rat A10 cell proliferation assay
- Format: cell-based
- Recorded conditions: Table 1; Rat A10 cells, recombinant rat PDGF-BB, CellTiter-Glo after 68 hours
Label yes when IC50 is strictly below 0.07 µM; at or above that, label no.

Consider CN(C)CCCOc1ccc(-c2ccn3c(C(=O)Nc4cc(C(=O)NC5Cc6ccccc6C5O)ccc4F)cnc3c2)cn1 (stereo not shown) . Does its IC50 lie strictly below 0.07 µM?
yes

Consider Cn1nccc1-c1ccn2c(C(=O)Nc3cc(C(=O)N[C@H]4Cc5ccccc5[C@H]4O)ccc3F)cnc2c1 . Does its IC50 lie strictly below 0.07 µM?
yes

Consider CN(C)CCCOc1ccc(-c2ccn3c(C(=O)Nc4cc(C(=O)N[C@H]5Cc6ccccc6[C@H]5O)ccc4F)cnc3c2)cn1 (stereo in doubt) . Does its IC50 lie strictly below 0.07 µM?
yes

Consider O=C(N[C@@H]1c2ccccc2OC[C@@H]1O)c1ccc(F)c(NC(=O)c2cnc3ccccn23)c1 (racemic) . Does its IC50 lie strictly below 0.07 µM?
no

Consider O=C(N[C@H](CO)c1ccccc1)c1ccc(F)c(NC(=O)c2cnc3ccccn23)c1 . Does its IC50 lie strictly below 0.07 µM?
no

Consider Cn1nccc1-c1ccn2c(C(=O)Nc3cc(C(=O)N[C@@H](CO)[C@@H](O)c4ccccc4)ccc3F)cnc2c1 . Does its IC50 lie strictly below 0.07 µM?
yes

Consider Cn1nccc1-c1ccn2c(C(=O)Nc3cc(C(=O)N[C@@H]4Cc5ccccc5[C@@H]4O)ccc3F)cnc2c1 . Does its IC50 lie strictly below 0.07 µM?
yes

Consider O=C(N[C@@H]1c2ccccc2C[C@H]1O)c1ccc(F)c(NC(=O)c2cnc3ccccn23)c1 . Does its IC50 lie strictly below 0.07 µM?
no

Consider O=C(NC[C@@H](O)c1ccc(Cl)cc1)c1ccc(F)c(NC(=O)c2cnc3ccccn23)c1 . Does its IC50 lie strictly below 0.07 µM?
yes

Consider COc1ccc2ncc(C(=O)Nc3cc(C(=O)N[C@@H]4c5ccccc5C[C@@H]4O)ccc3F)n2c1 . Does its IC50 lie strictly below 0.07 µM?
no

Consider O=C(NCC(O)c1ccccc1Cl)c1ccc(F)c(NC(=O)c2cnc3ccccn23)c1 (stereo not shown) . Does its IC50 lie strictly below 0.07 µM?
yes

Consider O=C(N[C@H]1CCSC[C@H]1O)c1ccc(F)c(NC(=O)c2cnc3ccccn23)c1 . Does its IC50 lie strictly below 0.07 µM?
no

Consider O=C(N[C@@H]1CCCC[C@H]1CO)c1ccc(F)c(NC(=O)c2cnc3ccccn23)c1 . Does its IC50 lie strictly below 0.07 µM?
no

Consider Cc1ccc(C(=O)NC(CO)Cc2ccccc2)cc1NC(=O)c1cnc2ccccn12 (stereo not shown) . Does its IC50 lie strictly below 0.07 µM?
no

Consider Cc1ccc(C(=O)NCc2ccccc2N2CCCC(O)C2)cc1NC(=O)c1cnc2ccccn12 (stereo not shown) . Does its IC50 lie strictly below 0.07 µM?
yes

* * *

- Test system: PDGFR
- Protocol details: Rat A10 cell proliferation assay
- Assay type: cell-based
- Recorded conditions: Table 2; Rat A10 cells, recombinant rat PDGF-BB, CellTiter-Glo after 68 hours
Measured metric: IC50

State the recorded IC50 for this entry: O=C(N[C@H]1CC[C@@H](O)CC1)c1ccc(F)c(NC(=O)c2cnc3ccccn23)c1
> 10 µM

State the recorded IC50 for this entry: C[C@@]1(O)CCCC[C@H]1NC(=O)c1ccc(F)c(NC(=O)c2cnc3ccccn23)c1
> 10 µM

State the recorded IC50 for this entry: O=C(NCC1(O)CCNCC1)c1ccc(F)c(NC(=O)c2cnc3ccccn23)c1
> 9.02 µM

State the recorded IC50 for this entry: C[C@@H](CO)NC(=O)c1cccc(NC(=O)c2cnc3ccccn23)c1
> 10 µM

State the recorded IC50 for this entry: O=C(N[C@H]1c2ccccc2C[C@H]1O)c1ccc(F)c(NC(=O)c2cnc3ccc(-n4ccnc4)cn23)c1
> 10 µM
